# test: Pharmacokinetic properties in Beagle dogs, single oral dose compared with intravenous administration
# experimentalContext: dog, in vivo, 2 mg/kg, i.v. 2 mg/kg, Normal dogs (about 11 kg), fasted
quantityKind: AUC(0-inf) (ng·h/mL)
Number in ng·h/mL, nothing else.

## Input Would you kindly share the measured AUC(0-inf) for C/C(N)=N/C(=N\S(=O)(=O)c1ccc(C(F)(F)F)cc1)N1C[C@H](c2ccccc2)C(c2ccc(Cl)cc2)=N1 [Compound 1] ?
## Output 15400

---

# test: Pharmacokinetic properties in Beagle dogs, single oral dose compared with intravenous administration
# experimentalContext: dog, in vivo, 2 mg/kg, i.v. 2 mg/kg in DMSO/tetraglycol/PEG400/water 10:20:25:45, Small dogs (about 7.5 kg), fasted
# Procedure: Pharmacokinetic properties were measured in Beagle dogs. Administration was done orally and compared with intravenous administration (2 mg/kg, in DMSO/tetraglycol/PEG400/water, 10:20:25:45). Each formulation was tested as a single dose on three (3) animals except for F6(b), which was tested on five (5) animals. Dogs were sampled at times 0, 1 h, 4 h, 8 h, 12 h, 24 h, 36 h, 48 h, and 72 h to give full time-concentration profiles. […]
quantityKind: C0 (ng/mL)
Number in ng/mL, nothing else.

## Input Would you kindly share the measured C0 for C/C(N)=N/C(=N\S(=O)(=O)c1ccc(C(F)(F)F)cc1)N1C[C@H](c2ccccc2)C(c2ccc(Cl)cc2)=N1 ?
## Output 1820

Origin of measurements: patent US20230174493A1
